B1: glmS ribozyme (parent)
chain: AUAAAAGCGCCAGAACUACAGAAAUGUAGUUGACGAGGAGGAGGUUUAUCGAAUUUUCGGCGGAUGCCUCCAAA

Variants of: B1
METHOD NOTES: self-cleavage kobs at 40 uM GlcN6P; higher = faster cleavage; RNA array
MEASUREMENT CONTEXT: with glucosamine-6-phosphate
This sample holds only a part of the variants without activity.
Answer each item with its documented self-cleavage kobs at 40 uM GlcN6P.

A selection of reference data follows.
MUTANT: C8G G41U
self-cleavage kobs at 40 uM GlcN6P: < 1e-05 s⁻¹

MUTANT: A14G U54C
self-cleavage kobs at 40 uM GlcN6P: 0.00134 s⁻¹

MUTANT: C10G G32U C58A C70G
self-cleavage kobs at 40 uM GlcN6P: 5.06e-05 s⁻¹

MUTANT: A36U G37C G41C U55G
self-cleavage kobs at 40 uM GlcN6P: < 1e-05 s⁻¹

MUTANT: C8U U54A
self-cleavage kobs at 40 uM GlcN6P: < 1e-05 s⁻¹

Each of the following entries comes with a recorded value; kindly state self-cleavage kobs at 40 uM GlcN6P for each.
1. U30A G38C A52G U69A
2. U56G G60A
3. G37A U49A

Reply:
["< 1e-05 s⁻¹", "< 1e-05 s⁻¹", "< 1e-05 s⁻¹"]

The measurements presented in this section are drawn from the supplement of paper PMC7125110.
